# System: kochia
# Experiment description: Test A postemergence
# Type: in vivo, Kochia scoparia
# Condition notes: 125 g ai/ha, 0 to 100 scale, 0 no effect, 100 complete control
The following molecules are listed with their measured Plant response rating, Kochia values.
Just the number.

In the examples that follow, each entry is paired with its recorded Plant response rating, Kochia.
INSERT INTO measurements (molecule, reading) VALUES
  ('N#Cc1cccc(Oc2ncc(Cl)cn2)c1-n1cc(-n2ccc(C(F)(F)F)n2)cn1 [Compound 284]', 60),
  ('CC(C)Oc1cnn(-c2c(C#N)cccc2Oc2ncc(Br)cn2)c1 [Compound 254]', 60),
  ('FC(F)c1cccc(Oc2ncc(Cl)cn2)c1-n1cncc1Br [Compound 259]', 80),
  ('N#Cc1cccc(Oc2ncc(Cl)cn2)c1-n1cnc(C(F)(F)F)c1 [Compound 252]', 100),
  ('Fc1cccc(Oc2ncc(Cl)cn2)c1-n1cc(-c2ccsc2)nn1 [Compound 277]', 70);

Prompt: Fill in the blank: the reported Plant response rating, Kochia of Clc1cnc(Oc2ccccc2-n2cccc2)nc1 [Compound 269] is ____.
Response: 0
